# assay setup: in chloroform, 293.15 K
The compounds listed here are annotated with their solubility (mole fraction).
// return just the number, without any unit appended

Reference set (2 entries):
{"columns": ["smiles code", "result"],
 "data": [
  ["COc1c(NS(=O)(=O)c2ccc(C)cc2)cc(-c2ccc3ncnc(N4CCOCC4)c3c2)cc1C(N)=O", 0.00314],
  ["COc1c(NS(=O)(=O)c2ccc(F)cc2)cc(-c2ccc3nccc(N4CCOCC4)c3c2)cc1C(N)=O", "5.44e-05"]
]}

Field: next compound
According to the records, this compound COc1c(NS(=O)(=O)c2ccc(F)cc2)cc(-c2ccc3ncnc(N4CCOCC4)c3c2)cc1C(N)=O displays solubility (mole fraction) of 0.000158

====

The compounds listed here are annotated with their solubility (mole fraction).
# assay setup: in methanol, 313.15 K

Reference set (2 entries):
{"columns": ["smiles code", "solubility (mole fraction)"],
 "data": [
  ["COc1c(NS(=O)(=O)c2ccc(F)cc2)cc(-c2ccc3ncnc(N4CCOCC4)c3c2)cc1C(N)=O", 0.00078],
  ["COc1c(NS(=O)(=O)c2ccc(C)cc2)cc(-c2ccc3ncnc(N4CCOCC4)c3c2)cc1C(N)=O", 0.00151]
]}

Field: next compound
According to the records, this compound COc1c(NS(=O)(=O)c2ccc(F)cc2)cc(-c2ccc3nccc(N4CCOCC4)c3c2)cc1C(N)=O displays solubility (mole fraction) of 0.000518

====

# assay setup: in chloroform, 298.15 K
The molecules listed here are annotated with their solubility (mole fraction).
// return just the number, without any unit appended

Reference set (2 entries):
{"columns": ["smiles code", "metric", "result"],
 "data": [
  ["COc1c(NS(=O)(=O)c2ccc(F)cc2)cc(-c2ccc3nccc(N4CCOCC4)c3c2)cc1C(N)=O", "solubility (mole fraction)", "5.86e-05"],
  ["COc1c(NS(=O)(=O)c2ccc(C)cc2)cc(-c2ccc3ncnc(N4CCOCC4)c3c2)cc1C(N)=O", "solubility (mole fraction)", 0.00346]
]}

Field: next molecule
According to the records, this molecule COc1c(NS(=O)(=O)c2ccc(F)cc2)cc(-c2ccc3ncnc(N4CCOCC4)c3c2)cc1C(N)=O displays solubility (mole fraction) of 0.000165

====

The compounds listed here are annotated with their solubility (mole fraction).
# assay setup: in methanol, 288.15 K
// return just the number, without any unit appended

{"columns": ["smiles code", "result"],
 "data": [
  ["COc1c(NS(=O)(=O)c2ccc(F)cc2)cc(-c2ccc3nccc(N4CCOCC4)c3c2)cc1C(N)=O", 0.000259],
  ["COc1c(NS(=O)(=O)c2ccc(F)cc2)cc(-c2ccc3ncnc(N4CCOCC4)c3c2)cc1C(N)=O", 0.000238]
]}

Field: next compound
According to the records, this compound COc1c(NS(=O)(=O)c2ccc(C)cc2)cc(-c2ccc3ncnc(N4CCOCC4)c3c2)cc1C(N)=O displays solubility (mole fraction) of 0.000832

====

# assay setup: in chloroform, 288.15 K
metric: solubility (mole fraction)
// return just the number, without any unit appended

Reference set (2 entries):
{"columns": ["smiles code", "solubility (mole fraction)"],
 "data": [
  ["COc1c(NS(=O)(=O)c2ccc(F)cc2)cc(-c2ccc3nccc(N4CCOCC4)c3c2)cc1C(N)=O", "5.21e-05"],
  ["COc1c(NS(=O)(=O)c2ccc(F)cc2)cc(-c2ccc3ncnc(N4CCOCC4)c3c2)cc1C(N)=O", 0.000145]
]}

Field: next compound
According to the records, this compound COc1c(NS(=O)(=O)c2ccc(C)cc2)cc(-c2ccc3ncnc(N4CCOCC4)c3c2)cc1C(N)=O displays solubility (mole fraction) of 0.0027
